Reference source: PubChem BioAssay (NCI)

- System: NCI-H23 lung
- method: NCI tumour cell line growth inhibition, 48 h
What TGI was measured for each of the following?

Report TGI for O=C(O)CCC1(Br)CCCCC(Br)C1=O (stereo not drawn) please.
> 100 µM

Now the same for COc1ccc(N2C(=O)/C(=C\c3cccc(Oc4ccccc4)c3)S(=O)(=O)C2c2ccccc2)cc1 (stereo not drawn)
> 100 µM

And then `C[C@H]1CC[C@@H]2[C@@H](C)[C@H]3[C@H](C[C@H]4[C@@H]5CC=C6C[C@@H](O)CC[C@]6(C)[C@H]5C[C@H](O)[C@]34C)N2C1` , what is it?
> 100 µM

====

- Test system: HT29 colon
- method: NCI tumour cell line growth inhibition, 48 h
test_readout: TGI (µM)
Please state the figure in µM; there is no need to write the unit.

Quick one: TGI for `CCC[CH2][Sn]([CH2]CCC)([O]C(=O)c1nccnc1N)[O]C(=O)c1nccnc1N` ?
3.05

One more molecule: `c1ccc(-c2nn(-c3ccccc3)[n+](-c3cccc4ccccc34)n2)cc1`
15.1
